This listing pairs compounds with measured TGI.
Tested on: SN12C renal
assayExplanation: NCI tumour cell line growth inhibition, 48 h

{"compound": "COc1cc(C2C(C(=O)O)=C(COC(C)=O)Oc3cc4c(cc32)OCO4)cc(OC)c1OC (stereo unspecified)", "TGI": "> 100 µM"}
{"compound": "Cc1c(COc2cc(OCc3cccc(C#N)c3)c(CN3C[C@H](O)C[C@@H]3C(=O)O)cc2Cl)cccc1-c1ccc2c(c1)OCCO2", "TGI": "29.5 µM"}
{"compound": "Cc1c2cnccc2c(C)c2c1c1ccccc1n2CCCCCCNCc1ccccc1", "TGI": "3.27 µM"}
{"compound": "CCC1CN2CCc3c([nH]c4ccccc34)C2C[C@@H]1CC(=O)N(C)C (stereo partly specified)", "TGI": "> 100 µM"}
{"compound": "O=C1/C(=C/c2ccc(Cl)cc2)N=C(c2ccccc2)N1CCc1cccs1", "TGI": "> 100 µM"}
{"compound": "CC(=O)N(O)[C@@H]1CC[C@H](n2cnc3c(N)ncnc32)C1", "TGI": "> 100 µM"}
{"compound": "CCCCCCCCCc1cccc(N2C(N)=NC(N)=NC2(C)C)c1", "TGI": "2.33 µM"}
{"compound": "CS(=O)(=O)N(N(CCCl)S(=O)(=O)c1ccccc1)S(C)(=O)=O", "TGI": "> 100 µM"}
{"compound": "COc1ccc(OC)c(CC2CCc3nc(N)nc(N)c3C2)c1 (stereo unspecified)", "TGI": "> 100 µM"}
{"compound": "O=S(=O)(O)ON=C1c2ccccc2-c2ccccc21", "TGI": "> 100 µM"}
{"compound": "COc1cc(O)c(C(=O)/C=C/c2ccc(O)cc2)c(O)c1[C@@H]1C[C@H](CCc2ccc(O)cc2)O[C@H](c2ccc(O)cc2)C1", "TGI": "20.3 µM"}

----------
System: HOP-62 NSCLC
assayExplanation: NCI tumour cell line growth inhibition, 48 h; in the data active means GI50 below about 0.43 µM; inactive means the rest
Labels: active, inactive

{"compound": "O=C(/C=C/c1cc([N+](=O)[O-])ccc1Cl)c1ccccc1", "label": "inactive"}
{"compound": "Cc1cccc2c(=O)c3c(sc12)c(NCCNCCO)nc1ccccc13", "label": "inactive"}
{"compound": "CC(=Nc1ccccc1)C1=C(O)C(Cc2ccccc2)NC1=O (stereo not drawn)", "label": "active"}
{"compound": "O=C1/C(=C/c2ccc(Cl)cc2)N=C(c2ccccc2)N1CCc1cccs1", "label": "inactive"}
{"compound": "O=C(Nc1ccccc1)NS(=O)(=O)c1ccc(-n2nc3c(c2-c2ccc(Cl)cc2)Cc2ccccc2-3)cc1", "label": "inactive"}
{"compound": "CN(C)c1ccc(Nc2cc(-c3cccc(OC(F)(F)F)c3)nc3ccc(N4CCCC4)cc23)cc1", "label": "inactive"}
{"compound": "Nc1nc(Cl)c(N=Nc2ccc(Cl)cc2)c(NCC2(CO)CC2)n1", "label": "inactive"}
{"compound": "Nc1nc(-c2ccccc2)nc(N)c1N=O", "label": "inactive"}

----------
Test system: RPMI-8226 leukemia
assayExplanation: NCI tumour cell line growth inhibition, 48 h
reportedEndpoint: TGI (µM)

{"molecule": "Clc1ccc(C2SCc3nc4ccccc4n32)cc1Cl (stereo not given)", "readoutUnit": "µM", "modifier": "=", "resultValue": 96.1}
{"molecule": "Cc1occc1C(=S)Nc1ccc(Cl)c(C(=O)OC(C)C2CC2)c1 (stereo not given)", "readoutUnit": "µM", "modifier": "=", "resultValue": 60.1}
{"molecule": "CC(C)(C)c1cc2c3c(c1)C(C(F)(F)F)(C(F)(F)F)O[Te]3(C)OC2(C(F)(F)F)C(F)(F)F", "readoutUnit": "µM", "modifier": ">", "resultValue": 100}
{"molecule": "COc1ccc2c(c1)C(=O)c1c-2c(Nc2ccc(Cl)cc2)nc2ccccc12", "readoutUnit": "µM", "modifier": ">", "resultValue": 100}
{"molecule": "O=[N+]([O-])c1cccc(-c2oc(C=Nc3ccccc3)c([N+](=O)[O-])c2-c2cccc([N+](=O)[O-])c2)c1", "readoutUnit": "µM", "modifier": ">", "resultValue": 100}
{"molecule": "CCOC(=O)NC(NC1=NCCS1)(C(=O)OCC)C(F)(F)F (stereo not given)", "readoutUnit": "µM", "modifier": ">", "resultValue": 100}
{"molecule": "O=C(NCc1ccc(Cn2c(=O)sn(-c3ccccc3)c2=O)cc1)OCc1ccc2c(Br)cc(Br)c(O)c2n1", "readoutUnit": "µM", "modifier": "=", "resultValue": 1.72}
{"molecule": "CC1(C)Cc2cc(C(=O)O)c3c(c2C1=O)COCC3", "readoutUnit": "µM", "modifier": ">", "resultValue": 100}
{"molecule": "O=C1/C(=C/c2ccc(Cl)cc2)N=C(c2ccccc2)N1CCc1cccs1", "readoutUnit": "µM", "modifier": "=", "resultValue": 83.4}
{"molecule": "O=C/C=C/c1ccco1", "readoutUnit": "µM", "modifier": ">", "resultValue": 100}
{"molecule": "CCOC(=O)c1ccc(C(=O)/C(C(C)=O)=C2\\CCCN2C)n1C", "readoutUnit": "µM", "modifier": ">", "resultValue": 100}
{"molecule": "CN(C)c1ccccc1CN1CCCN(Cc2ccccc2N(C)C)C1c1ccncc1", "readoutUnit": "µM", "modifier": "=", "resultValue": 32.1}
{"molecule": "O=C(Nc1ccccc1)NS(=O)(=O)c1ccc(-n2nc3c(c2-c2ccc(Cl)cc2)Cc2ccccc2-3)cc1", "readoutUnit": "µM", "modifier": "=", "resultValue": 48.9}
{"molecule": "COC(=O)C1CCC(=O)N1C(c1ccc(OC)cc1)c1ccc(OC)cc1 (stereo not given)", "readoutUnit": "µM", "modifier": ">", "resultValue": 100}
{"molecule": "C1CCN(c2nc(=[N+]3CCCCC3)ss2)CC1", "readoutUnit": "µM", "modifier": ">", "resultValue": 100}

Cited source: PubChem BioAssay (NCI)
